# Test system: Saccharomyces cerevisiae
# Assay Explanation: protein stability index of tFT-peptide fusion (C-terminal peptide) (PSI (0-1 scale)); higher = more stable (slower turnover)
# Protocol Conditions: genetic background: wild type; temperature: 30 C
Recorded measurements of protein stability index, one per entry
Reported Property: protein stability index

[[record]]
monomer_sequence = "KQYSSPEICFRV [YBR134W C-terminal 12 aa]"
reported_property = "protein stability index"
recorded_number = 0.663

[[record]]
monomer_sequence = "TDNGSVLPLNPS [BAS1 C-terminal 12 aa]"
reported_property = "protein stability index"
recorded_number = 0.697

[[record]]
monomer_sequence = "KNLTRTSVSFIG [TRS85 C-terminal 12 aa]"
reported_property = "protein stability index"
recorded_number = 0.702

[[record]]
monomer_sequence = "VDQLFEKASVLY [RPN6 C-terminal 12 aa]"
reported_property = "protein stability index"
recorded_number = 0.721

[[record]]
monomer_sequence = "KGGRLSSKPIIM [SPT3 C-terminal 12 aa]"
reported_property = "protein stability index"
recorded_number = 0.686

[[record]]
monomer_sequence = "SLFPRDPKRLRP [DPS1 C-terminal 12 aa]"
reported_property = "protein stability index"
recorded_number = 0.699

[[record]]
monomer_sequence = "TSHEAVAAKKLI [SHC1 C-terminal 12 aa]"
reported_property = "protein stability index"
recorded_number = 0.249

[[record]]
monomer_sequence = "PKGGNYVSRYQR [THO2 C-terminal 12 aa]"
reported_property = "protein stability index"
recorded_number = 0.662

[[record]]
monomer_sequence = "NENDFNFINWEG [FLO8 C-terminal 12 aa]"
reported_property = "protein stability index"
recorded_number = 0.707

[[record]]
monomer_sequence = "AIQEYNARYPLN [ABF2 C-terminal 12 aa]"
reported_property = "protein stability index"
recorded_number = 0.707

[[record]]
monomer_sequence = "QSKNIEIFSQIK [YGR067C C-terminal 12 aa]"
reported_property = "protein stability index"
recorded_number = 0.695

[[record]]
monomer_sequence = "FENGGKLKEVDK [MDM35 C-terminal 12 aa]"
reported_property = "protein stability index"
recorded_number = 0.721

